Data provenance: patent US20100119520A1

# TESTED SYSTEM: lysozyme (Gallus gallus (Chicken), UniProt P00698 19-147)
# Sequence (P00698 19-147 limits assumed): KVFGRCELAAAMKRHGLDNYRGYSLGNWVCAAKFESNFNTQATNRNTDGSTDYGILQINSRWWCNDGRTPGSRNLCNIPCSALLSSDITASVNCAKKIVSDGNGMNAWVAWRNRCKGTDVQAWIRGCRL
# EXPERIMENTAL PROTOCOL: ELISA, protein coated at 10 ug/ml
MEASUREMENT LABEL: binding result

[
  {
    "BINDER": "anti-EF clone EF15A (antibody, V domains shown) VH: VQLLEESGGGVVQPGRSLRLSCTASGFTFSNYGMQWVRQAPGKRLEWVAFISYSGSNKQYADSVRGRFTISRDNSKNILYLQMNSLRSEDTAVYYCARDSHYLDYLPDAFDYWGQGTVVTVS VL: ELVMTQSPSLLSASVGDRVTITCRASQGISNYLAWFQQKPGKAPKRLIFTAYRLESGVPSRFSGSMSGTEFTLTISSLEPEDFATYYCLQHSAYPPTFGQGTKLEIKR",
    "ENDPOINT VALUE": "no binding"
  },
  {
    "BINDER": "anti-anthrax LF10E monoclonal antibody (IgG) (antibody, V domains shown) VH: EVQLLESGGGLVKPGGSLRLTCAASGFTFSSYAMHWVRQAPEKGLEWVSSISGSGGGTWYADSVKGRFTISRDNSRNTLYLQLNSLRAEDTAVYYCARPKYTGYENPFDYWGQGTLVTVS VL: ELQMTQSPSSLSASVGDRVTITCRASQDIRNYLAWYQQEPGKAPRLLIYYASKLQSGVPSRFSGRGSGTDYSLTISSLQPEDFATYYCQQYDSVPLTFGGGTKMEIKR",
    "ENDPOINT VALUE": "no binding"
  },
  {
    "BINDER": "anti-anthrax LF11H monoclonal antibody (IgG) (antibody, V domains shown) VH: VQLLEQSGAEVKKPGESLKISCKGSGYSFTNYWIGWVRQMPGKGLEWMGIIYPDDSDTRYSPSFQGQVTISFDKSINTAYLQWSSLKASDTAIYYCARALWFRDWGKMDVWGKGTTVTVS VL: ELQMTQSPSSLSASVGDRVTITCRASQGIRNDLGWYQQKPGKAPKLLIYAASSLQSGVPSRFSGSGSGTDFTLTISSLQPEDFATYYCLQDYTYPWTFGQGTKLEIKR",
    "ENDPOINT VALUE": "no binding"
  }
]
